target: DNA topoisomerase 1 (Homo sapiens) (UniProt P11387); assay: Inhibition of human DNA topoisomerase 1 assessed as reduction in pBR322 DNA relaxation at 20 to 100 uM in presence of ethidium bromide by agarose gel electrophoresis method; settings: dose 20-100 µM
Sequence (P11387 whole entry): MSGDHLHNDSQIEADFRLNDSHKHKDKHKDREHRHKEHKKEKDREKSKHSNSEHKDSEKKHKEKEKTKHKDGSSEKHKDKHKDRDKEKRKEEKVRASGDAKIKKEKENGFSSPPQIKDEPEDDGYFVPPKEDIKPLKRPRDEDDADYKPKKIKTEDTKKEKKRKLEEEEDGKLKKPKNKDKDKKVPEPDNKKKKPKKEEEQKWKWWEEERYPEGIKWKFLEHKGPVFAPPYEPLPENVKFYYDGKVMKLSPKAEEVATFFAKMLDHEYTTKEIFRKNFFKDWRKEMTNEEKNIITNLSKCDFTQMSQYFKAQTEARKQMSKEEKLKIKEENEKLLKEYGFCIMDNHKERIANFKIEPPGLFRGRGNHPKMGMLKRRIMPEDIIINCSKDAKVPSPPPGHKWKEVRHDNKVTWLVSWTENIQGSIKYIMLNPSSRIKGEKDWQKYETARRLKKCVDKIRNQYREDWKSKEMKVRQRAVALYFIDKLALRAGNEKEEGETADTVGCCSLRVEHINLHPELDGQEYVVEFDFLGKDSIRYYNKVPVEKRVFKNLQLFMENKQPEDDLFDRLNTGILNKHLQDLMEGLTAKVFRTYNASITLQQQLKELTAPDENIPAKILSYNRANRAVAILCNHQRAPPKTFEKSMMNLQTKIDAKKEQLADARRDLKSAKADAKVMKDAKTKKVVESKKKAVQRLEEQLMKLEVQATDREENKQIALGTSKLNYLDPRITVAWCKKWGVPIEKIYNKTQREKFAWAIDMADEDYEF
The source made the active and inactive calls. No cut-off for these calls is given here.
Tick one outcome: 1.0 (active), 0.0 (inactive)

Hi team, can someone confirm the assay call for COc1cc2c(cnc3c4ccc5cc(O)ccc5c4n(CCCN4CCOCC4)c23)cc1O ?
1.0

# fetch the recorded call for COc1cc2c(cnc3c4ccc5cc(O)ccc5c4n(CCN(C)C)c23)cc1O here
1.0

Write down the call the test reported for this compound. Item: COc1cc2c(cc1O)c[n+]([O-])c1c3ccc4cc(O)ccc4c3n(C)c21
1.0

Returns: the outcome recorded for COc1cc2c(cnc3c4ccc5cc(O)ccc5c4n(CCCn4ccnc4)c23)cc1O in this assay.
0.0

----------
tested on: LOX IMVI; assay: Growth inhibition of human LOX IMVI cells assessed as reduction in cell viability; format: functional
REPORTED PROPERTY: GI50 (nM)
Numeric only. Scale: nM

Entry COc1cc2c(cnc3c4ccc5cc(O)ccc5c4n(CCCCl)c23)cc1O , tested on LOX IMVI, has a reported GI50 of 25

GI50 on LOX IMVI for COc1cc2c(cc1O)c[n+]([O-])c1c3ccc4cc(O)ccc4c3n(C)c21 is 50

Field GI50 (system: LOX IMVI) for entry COc1cc2c(cnc3c4ccc5cc(O)ccc5c4n(C)c23)cc1O = 178

GI50 on LOX IMVI for COc1cc2c(cnc3c4ccc5cc(O)ccc5c4n(CCCn4ccnc4)c23)cc1O is 44

Note to self: GI50 of COc1cc2c(cnc3c4ccc5cc(O)ccc5c4n(CCCN4CCC(N5CCCCC5)CC4)c23)cc1O with LOX IMVI was 363

Entry COc1cc2c(ccc3c4c(=O)oc5cc(O)c(OC)cc5c4n(C)c23)cc1O : GI50 on LOX IMVI = 2.6

----------
tested on: HCT-116; experiment: Growth inhibition of human HCT-116 cells assessed as reduction in cell viability; format: functional
Provide the reported log10 of GI50 of each item.
Please be aware that the numbers have been log10-transformed from GI50 in nM.

Input COc1cc2c(cnc3c4ccc5cc(O)ccc5c4n(C)c23)cc1O . Output log10 of GI50: 2.30

Summary for this compound, COc1cc2c(cnc3c4ccc5cc(O)ccc5c4n(CCCN4CCC(N5CCCCC5)CC4)c23)cc1O : log10 of GI50 is 2.49

log10 of GI50 reported for this compound COc1cc2c(cnc3c4ccc5cc(O)ccc5c4n(CCCn4ccnc4)c23)cc1O : 2.51

Per the record, COc1cc2c(cnc3c4ccc5cc(O)ccc5c4n(CCN(C)C)c23)cc1O has log10 of GI50 of 1.81

Entry COc1cc2c(ccc3c4c(=O)oc5cc(O)c(OC)cc5c4n(C)c23)cc1O , log10 of GI50 reported as 0.94

COc1cc2c(cc1O)c[n+]([O-])c1c3ccc4cc(O)ccc4c3n(C)c21 has a reported log10 of GI50 of 2.32

Reported log10 of GI50 for COc1cc2c(cnc3c4ccc5cc(O)ccc5c4n(CCCCl)c23)cc1O was 2.06

----------
system: MKN-28; test: Growth inhibition of human MKN-28 cells assessed as reduction in cell viability; assay type: functional
REPORTED PROPERTY: GI50 (nM)
Dear colleague, please return just the value in nM, with no unit written.

Documented GI50 of COc1cc2c(cnc3c4ccc5cc(O)ccc5c4n(CCCCl)c23)cc1O : 316

// GI50 value for COc1cc2c(cc1O)c[n+]([O-])c1c3ccc4cc(O)ccc4c3n(C)c21 : 3550

Value of GI50 reported for the compound COc1cc2c(cnc3c4ccc5cc(O)ccc5c4n(CCCN4CCOCC4)c23)cc1O is 19

GET /value?item= COc1cc2c(cnc3c4ccc5cc(O)ccc5c4n(CCN(C)C)c23)cc1O &field=GI50 returns 912

# GI50 (compound: COc1cc2c(cnc3c4ccc5cc(O)ccc5c4n(CCCn4ccnc4)c23)cc1O ) is 1950

Input COc1cc2c(ccc3c4c(=O)oc5cc(O)c(OC)cc5c4n(C)c23)cc1O . Output GI50: 33

Summary for this compound, COc1cc2c(cnc3c4ccc5cc(O)ccc5c4n(C)c23)cc1O : GI50 is 437

Entry COc1cc2c(cnc3c4ccc5cc(O)ccc5c4n(CCCN4CCC(N5CCCCC5)CC4)c23)cc1O — recorded GI50 = 562
